Please go through the items and note down their TGI.
Tested on: SK-MEL-2 melanoma
Experiment: NCI tumour cell line growth inhibition, 48 h

Here are 5 compounds together with their reported answers.
Ic1ccc(-n2nnnc2-c2cnoc2-c2ccccc2)cc1 ... > 100 µM
CC(NNC(=O)CC(=O)N(C(=O)c1ccccc1)c1ccc(Cl)cc1)c1cc2ccccc2oc1=O (stereo unspecified) ... > 10 µM
COC12C=C/C(=C(/C(=O)OCc3ccncc3)C(=O)CCCCCCCCC3(OC)C=C/C(=C(/C(=O)OCc4ccncc4)C(=O)CCCCCCCC1)O3)O2 ... 3.05 µM
O=P(O)(Cc1ccccc1)c1ccccc1-c1ccccc1 ... > 100 µM
CC[C@@]12N=C(N(C)C)C[C@]1(O)ON=C2C ... > 100 µM

Turning now to a further compound:
Q: What does the record list as TGI for CCOC(=O)c1cc(C2(O)CCN(CC(C)CC)C2=O)c(-c2cc(C)no2)[nH]1 (stereo unspecified) ?
Ans: > 100 µM

###

Consider the following molecules; for each one, report its TGI.
Test system: EKVX NSCLC
Assay: NCI tumour cell line growth inhibition, 48 h

Worked examples, 8 molecules total:
CC1C[C@]2(C)C(=O)Nc3ccccc3[C@@H]2Nc2ccccc21 (some centres not stated) ... 81.8 µM
Cc1cn(CCCCCOC(=O)NC(CCCN=C(N)N)C(=O)O)c(=O)[nH]c1=O (configuration not stated) ... > 100 µM
N#CC1(C#N)C2CCCCC23OC(=N)C1(C#N)C(c1ccccc1)O3 (configuration not stated) ... 60.6 µM
COc1cccc2c1C(=O)c1c(O)c3c(c(O)c1C2=O)C[C@@](O)(C(=O)CO)C[C@@H]3OC1CC(N)C(OC)C(C)O1 (some centres not stated) ... 9.35 µM
Cc1ccc(/C=C/c2c(C(=O)/C=C/c3ccc(C(F)(F)F)cc3)c(C)nc3ccccc23)cc1 ... 3.36 µM
O=c1c2ccccc2sc2cccc(NCCCN3CCN(CCCNc4cccc5sc6ccccc6c(=O)c45)CC3)c12 ... > 100 µM
CC1=C2CCCC2=C/C(=N/Nc2ccc([N+](=O)[O-])cc2[N+](=O)[O-])CC1 ... > 100 µM
CC(=O)OC1O[C@@H](C(C)(C)O)CC[C@@H]1[C@H]1CC[C@@]2(C)C3=C(CC[C@]12C)[C@@]1(C)C[C@@H](OC(=O)CC(C)(O)CC(=O)O)[C@H](OC(C)=O)C(C)(C)C1CC3 (some centres not stated) ... 35.3 µM

Give me TGI for each of these molecules, listed below.
1. NS(=O)(=O)c1ccc(N(/C=C/C(=O)C(F)(F)F)CC(=O)c2ccc(Cl)cc2)cc1
2. Cc1cc(C)nc(NS(=O)(=O)c2ccc(NNC(=O)c3cccc4c(=O)c5ccccc5[nH]c34)cc2)n1
3. COc1ccc(N2C(=O)CS(=O)(=O)C2c2cccc(Oc3ccccc3)c2)cc1 (configuration not stated)
4. CC(C)(C)C(=O)OC(N)/C=C/c1ccccc1 (configuration not stated)
5. CCc1cccc(C)c1NC(=O)C(=O)Cc1nc2ccccc2o1

Ans:
["> 100 µM", "98.9 µM", "47.8 µM", "> 100 µM", "> 100 µM"]

###

Test system: A549 NSCLC
Experiment: NCI tumour cell line growth inhibition, 48 h; in the data active = GI50 below about 0.43 µM; inactive = the rest
Log the outcome using a class from t for active, f for inactive

Worked examples, 5 molecules total:
CCN(CC)c1nc(-c2ccc(Cl)cc2Cl)nc2ccccc12 ... f
O=c1cc2oc3cc(O)c(O)cc3c(-c3ccccc3O)c-2cc1O ... f
Cc1ccc(Cl)cc1Nc1nc(C(F)(F)F)ccc1C(=O)N1CCN(c2cccc(Cl)c2)CC1 ... f
Cn1cc(C2=C(c3cn(C)c4cc(C(N)=O)ccc34)C(=O)NC2=O)c2ccccc21 ... f
CCCn1c(N)c(C(=O)N/N=C(/C)c2cc3cccc(OC)c3o2)sc1=S ... f

Q: Test call for this molecule, please: Nc1nccc2c1ccn2-c1ccc(NC(=O)c2ccc(N3CCOCC3)c(C(F)(F)F)c2)cc1
Ans: f

Q: And for N=c1ccn2c(n1)OC1C(O)C(CO)OC12 (stereo not drawn) ?
Ans: t

Q: Request: COc1cc(C2c3cc4c(cc3C(O)C(CO)C2CO)OCO4)cc(OC)c1OC (stereo not drawn)
Ans: f

###

System: NCI-H460 lung
Assay: NCI tumour cell line growth inhibition, 48 h
Assay Readout: TGI (µM)
Answers are plain numbers, in µM.

Below, 5 compounds whose answers are already recorded.
COc1ccc(OC)c(C2Cc3cnc4nc(N)nc(N)c4c3C2)c1 (centres undefined) ... 73.6
Oc1cc(O)c2c(c1)OC(c1ccc(O)c(O)c1)C(OC1(c3cc(O)c(O)c(O)c3)Oc3cc(O)cc(O)c3C(O)C1O)C2 (centres undefined) ... 36.8
CC1=CC(=O)[C@@H](O)[C@]2(C)[C@H]3[C@@]4(O)OC[C@]35[C@H]([C@@H](C)[C@H]4O)[C@@H](O)C(=O)O[C@@H]5C[C@@H]12 ... 4.85
CC12CCC3C(CCC4=CC(O)CCC43C=O)C1(O)CCC2c1ccc(=O)oc1 (centres undefined) ... 0.0131
CCN1CCN=c2c3cc(OC)ccc3n3cnc4ccc1c2c43 ... 0.308

Shift focus to the following entry.
Q: Item N#CC1(C#N)C2CCCCC23OC(=N)C1(C#N)C(c1ccccc1)O3 (centres undefined) has what recorded TGI?
Ans: 49.7

###

I'd be grateful if you could share measured TGI for these entries.
Test system: K-562 leukemia
Test: NCI tumour cell line growth inhibition, 48 h

Some solved cases for reference:
COc1ccc(/C=N/n2c(-c3ccccc3)n[nH]c2=O)cc1 ... > 100 µM
Cc1csc(Nc2nc(-c3cccc(Br)c3)nc(C(Cl)(Cl)Cl)n2)n1 ... > 100 µM
CC(=O)Nc1ccc(-c2nc3ccccc3s2)cc1 ... 77 µM
CCOC(=O)c1ccc(C(=O)/C(C#N)=C2\CCCN2C)[nH]1 ... > 100 µM
O=C(NS(=O)(=O)OCC(Cl)(Cl)Cl)SCCC(F)(F)C(F)(F)C(F)(F)C(F)(F)C(F)(F)C(F)(F)F ... > 100 µM
CC(C)=C1C(=O)C[C@]2(C)C[C@H]3/C(=C(/C)CCC12)CC[C@@]3(C)O (some centres not stated) ... > 50 µM

Lab note: each molecule below needs its TGI filled in.
1. CC(=O)Nc1ccc(-c2nc3cc(Cl)ccc3o2)cc1
2. CCC1C2C=CC(CC2)N1S(=O)(=O)c1ccc(C)cc1 (configuration not stated)
3. Cc1cccc(C(C)C)c1NC(=O)CC1Sc2ccccc2NC1=O (configuration not stated)
4. Cn1c(=O)c2c(no[n+]2[O-])c2ccccc21
5. C#CCN(CC#C)C(=O)C(=O)c1c[nH]c2ccc(OC)cc12
6. O=C(CC(O)(C(F)(F)F)C(F)(F)F)c1cc(CC(=O)C(O)(C(F)(F)F)C(F)(F)F)cc(CC(=O)C(O)(C(F)(F)F)C(F)(F)F)c1
7. CCOc1ccc2c(c1)[n+]([O-])c(-c1ccccc1Cl)c(N)[n+]2[O-]
8. COc1cccc2c1C(=O)c1c(O)c3c(c(O)c1C2=O)C[C@@](O)(C(=O)CO)C[C@@H]3OC1CC(N)C(OC)C(C)O1 (some centres not stated)

Ans:
["> 50 µM", "> 100 µM", "> 100 µM", "> 100 µM", "33.9 µM", "> 10 µM", "> 100 µM", "0.0483 µM"]

###

Provide the reported TGI of each item.
Test system: SK-MEL-2 melanoma
Test: NCI tumour cell line growth inhibition, 48 h

Cc1ccc(-c2nc3ccc([N+](=O)[O-])cc3[nH]2)cc1 ... > 100 µM
CC(C)(C)[Si](C)(C)OC1/C(=C/C#N)C(n2ccc(=O)[nH]c2=O)OC1CO (stereo unspecified) ... > 100 µM
O=[N+]([O-])c1ccc(S(=O)(=O)N=Ic2ccccc2)cc1 ... > 100 µM
CN1CCN(CN2C(=O)C3C4C=CC(C3C2=O)C2C(=O)N(CN3CCN(C)CC3)C(=O)C42)CC1 (stereo unspecified) ... > 100 µM
O=C(c1ccc(F)c(F)c1Nc1ccc(I)cc1F)N1CC(O)([C@@H]2CCCCN2)C1 ... < 0.0268 µM

Q: Entry under review: CC12CC(C#N)(C#N)C(C#N)(CO1)C(=N)O2 (stereo unspecified) . Reported TGI?
Ans: > 100 µM

###

Would you mind telling me the reported TGI of each entry?
System: HOP-92 NSCLC
Experiment: NCI tumour cell line growth inhibition, 48 h

A selection of reference data follows.
O=C(O)CCN(CCC(=O)O)c1ccc(/C=C2\SC(=S)NC2=O)cc1 ... > 100 µM
COc1ccc(-c2c(C#N)c(O)n(NS(=O)(=O)c3ccc(C)cc3)c(=O)c2C#N)cc1 ... > 100 µM
CS(=O)(=O)CCCn1c(=O)c(Oc2ccc(F)cc2F)cc2cnc(NC3CCOCC3)nc21 ... > 25 µM

// moving on: another record for TGI
Q: May I ask what TGI has been recorded for C[C@@H]1C[C@](O)([C@@H](C)Cl)C(=O)O[C@@H]2CCN3CC=C(COC(=O)[C@]1(C)O)[C@H]23 ?
Ans: > 100 µM
